Target: Glucocorticoid receptor (Homo sapiens)
pIC50: −log10 of the molar value.
// bucketize pIC50: band A = under 6, band B = from 6 up to 7, band C = 7 and over

molecule	answerLabel
CC1(CC(O)(Cc2cc3ccccc3[nH]2)C(F)(F)F)CCCc2ccccc21 (stereo not given)	band B
CCC1(CC(O)(Cc2[nH]c3ccccc3c2C#N)C(F)(F)F)CCCc2ccccc21 (stereo not given)	band C
Cc1noc(=O)c2ccc(NC(=O)C(O)(CC3(C4CCCC4)CCCc4ccccc43)C(F)(F)F)cc12 (stereo not given)	band C
CCC1(CC(O)(Cc2cc3ccccc3[nH]2)C(F)(F)F)CCCc2ccccc21 (stereo in doubt; 20D1E1)	band B
CCC1(CC(O)(Cc2ccnc3ccccc23)C(F)(F)F)CCCc2ccccc21 (stereo in doubt; 33D1)	band A
CC1(CC(O)(Cn2ccc(=O)c3ccccc32)C(F)(F)F)CCCc2ccccc21 (stereo in doubt; 17D1)	band B

###

Target: Glucocorticoid receptor (Homo sapiens, UniProt P04150)
Test: Agonist activity at glucocorticoid receptor in human A549 cells by MMTV transactivation assay
Assay type: functional, cell-based
Reported EC50 is given for each of the following compounds.
measuredQuantity: EC50 (nM)

compound	target	reportedRelation	experimentalResult
CCC1(CC(O)(Cc2ccnc3ccccc23)C(F)(F)F)CCCc2ccccc21 (stereo in doubt; 33D1E1)	Glucocorticoid receptor (Homo sapiens, UniProt P04150)	>	1000
Cc1ccc2c(NCC(O)(CC3(C)CCCc4ccccc43)C(F)(F)F)cccc2n1 (stereo in doubt; 55D1E1)	Glucocorticoid receptor (Homo sapiens, UniProt P04150)	=	9.55
CCC1(CC(O)(Cc2cc3ccccc3[nH]2)C(F)(F)F)CCCc2ccccc21 (stereo in doubt; 20D1)	Glucocorticoid receptor (Homo sapiens, UniProt P04150)	=	64.6
CCC1(CC(O)(CNc2cccc3nc(C)ccc23)C(F)(F)F)CCCc2ccccc21 (stereo in doubt; 45D2E1)	Glucocorticoid receptor (Homo sapiens, UniProt P04150)	=	288
CC1(CC(O)(Cc2ccnc3ccccc23)C(F)(F)F)CCCc2ccccc21 (stereo in doubt; 41D1)	Glucocorticoid receptor (Homo sapiens, UniProt P04150)	=	12.9

###

Listing of recorded pEC50 by entry.
Biological target: Glucocorticoid receptor (Homo sapiens, UniProt P04150)
Sequence (P04150 whole entry): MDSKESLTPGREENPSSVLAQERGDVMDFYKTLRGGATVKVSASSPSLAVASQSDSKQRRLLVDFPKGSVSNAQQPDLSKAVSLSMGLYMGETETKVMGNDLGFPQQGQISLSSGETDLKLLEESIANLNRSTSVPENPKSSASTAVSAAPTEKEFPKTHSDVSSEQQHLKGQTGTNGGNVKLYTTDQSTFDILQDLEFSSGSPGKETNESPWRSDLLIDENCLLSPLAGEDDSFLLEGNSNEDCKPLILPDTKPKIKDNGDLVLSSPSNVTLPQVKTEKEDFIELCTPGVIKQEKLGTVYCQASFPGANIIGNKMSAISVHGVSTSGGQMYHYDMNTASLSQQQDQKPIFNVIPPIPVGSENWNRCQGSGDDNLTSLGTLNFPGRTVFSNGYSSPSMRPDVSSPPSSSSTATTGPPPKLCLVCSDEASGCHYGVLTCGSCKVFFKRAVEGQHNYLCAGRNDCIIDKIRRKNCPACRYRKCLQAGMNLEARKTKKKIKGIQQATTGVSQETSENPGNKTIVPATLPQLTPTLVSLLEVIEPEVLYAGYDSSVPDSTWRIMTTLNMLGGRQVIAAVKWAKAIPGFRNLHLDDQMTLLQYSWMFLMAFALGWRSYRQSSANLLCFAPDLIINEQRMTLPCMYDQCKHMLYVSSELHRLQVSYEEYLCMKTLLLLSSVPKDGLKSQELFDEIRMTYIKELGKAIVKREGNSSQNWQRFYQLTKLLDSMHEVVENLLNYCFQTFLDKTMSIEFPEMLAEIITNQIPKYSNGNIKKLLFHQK
Assay: Agonist activity at glucocorticoid receptor in human A549 cells by MMTV transactivation assay
pEC50: −log10 of the molar value.
measuredQuantity: pEC50

compound	target	measuredQuantity	reportedRelation	experimentalResult
CCC1(CC(O)(CNc2cccc3cnccc23)C(F)(F)F)CCCc2ccccc21 (stereo in doubt; 49D1E2)	Glucocorticoid receptor (Homo sapiens, UniProt P04150)	pEC50	<	6.00
CCC1(CC(O)(Cc2cc3ccccc3[nH]2)C(F)(F)F)CCCc2ccccc21 (stereo in doubt; 20D1E1)	Glucocorticoid receptor (Homo sapiens, UniProt P04150)	pEC50	=	7.21
CCC1(CC(O)(Cc2cc3c(C)cc(C#N)cc3[nH]2)C(F)(F)F)CCCc2ccccc21 (stereo in doubt; 21D1)	Glucocorticoid receptor (Homo sapiens, UniProt P04150)	pEC50	=	7.23
CC1(CC(O)(CNc2cccc3cnccc23)C(F)(F)F)CCCc2ccccc21 (stereo in doubt; 54D2E1)	Glucocorticoid receptor (Homo sapiens, UniProt P04150)	pEC50	=	6.59
CCC1(CC(O)(CNc2cccc3cnccc23)C(F)(F)F)CCCc2ccccc21 (stereo in doubt; 49D1)	Glucocorticoid receptor (Homo sapiens, UniProt P04150)	pEC50	=	7.49
CC1(CC(O)(Cn2ccc(=O)c3ccccc32)C(F)(F)F)CCCc2ccccc21 (stereo in doubt; 17D2)	Glucocorticoid receptor (Homo sapiens, UniProt P04150)	pEC50	<	6.00
CCC1(CC(O)(CNc2cccc3ncccc23)C(F)(F)F)CCCc2ccccc21 (stereo unspecified)	Glucocorticoid receptor (Homo sapiens, UniProt P04150)	pEC50	<	6.00
CCC1(CC(O)(Cc2cc3c(C)cc(C#N)cc3[nH]2)C(F)(F)F)CCCc2ccccc21 (stereo in doubt; 21D1E2)	Glucocorticoid receptor (Homo sapiens, UniProt P04150)	pEC50	=	7.29
CC1(CC(O)(CNc2cccc3cnccc23)C(F)(F)F)CCCc2ccccc21 (stereo in doubt; 54D1E2)	Glucocorticoid receptor (Homo sapiens, UniProt P04150)	pEC50	=	8.08
CCC1(CC(O)(Cc2cc(Cl)nc3ccccc23)C(F)(F)F)CCCc2ccccc21 (stereo unspecified)	Glucocorticoid receptor (Homo sapiens, UniProt P04150)	pEC50	=	7.29
CCC1(CC(O)(Cc2cc3ccncc3[nH]2)C(F)(F)F)CCCc2ccccc21 (stereo in doubt; 23D1E1)	Glucocorticoid receptor (Homo sapiens, UniProt P04150)	pEC50	<	6.00
CCC1(CC(O)(CNc2cccc3nc(C)ccc23)C(F)(F)F)CCCc2ccccc21 (stereo in doubt; 45D1)	Glucocorticoid receptor (Homo sapiens, UniProt P04150)	pEC50	=	7.88
CC1(CC(O)(Cc2ccnc3ccccc23)C(F)(F)F)CCCc2ccccc21 (stereo in doubt; 41D2)	Glucocorticoid receptor (Homo sapiens, UniProt P04150)	pEC50	<	5.00
CCC1(CC(O)(Cc2ccnc3ccccc23)C(F)(F)F)CCCc2ccccc21 (stereo in doubt; 33D2)	Glucocorticoid receptor (Homo sapiens, UniProt P04150)	pEC50	<	5.00
CC1(CC(O)(Cc2cc3ccccc3[nH]2)C(F)(F)F)CCCc2ccccc21 (stereo unspecified)	Glucocorticoid receptor (Homo sapiens, UniProt P04150)	pEC50	=	7.38
CC1(CC(O)(CNc2cccc3ncccc23)C(F)(F)F)CCCc2ccccc21 (stereo unspecified)	Glucocorticoid receptor (Homo sapiens, UniProt P04150)	pEC50	=	7.87

###

Molecular target: Glucocorticoid receptor (Homo sapiens, UniProt P04150)
Experiment: Agonist activity at glucocorticoid receptor in human A549 cells by MMTV transactivation assay
measuredQuantity: log10 EC50 (log10 of the value in µM)

compound	log10 EC50
Cc1ccc2c(NCC(O)(CC3(C)CCCc4ccccc43)C(F)(F)F)cccc2n1 (stereo in doubt; 55D2E1)	-1.14
Cc1noc(=O)c2ccc(NC(=O)C(O)(CC3(C4CCCC4)CCCc4ccccc43)C(F)(F)F)cc12 (stereo not drawn)	-1.75
CCC1(CC(O)(Cc2ccnc3ccccc23)C(F)(F)F)CCCc2ccccc21 (stereo in doubt; 33D1)	-1.42
CCC1(CC(O)(CNc2cccc3nc(C)ccc23)C(F)(F)F)CCCc2ccccc21 (stereo in doubt; 45D1E1)	-1.96
CCC1(CC(O)(CNc2cccc3nc(C)ccc23)C(F)(F)F)CCCc2ccccc21 (stereo in doubt; 45D2)	-0.79

###

Measured IC50 (UniProt:P04150)

compound	unitOfMeasurement	reportedRelation	IC50
CCC1(CC(O)(Cc2ccnc3ccccc23)C(F)(F)F)CCCc2ccccc21 (stereo in doubt; 33D2)	nM	=	275
CC1(CC(O)(CNc2cccc3cnccc23)C(F)(F)F)CCCc2ccccc21 (stereo in doubt; 54D2E1)	nM	=	15.1
CCC1(CC(O)(Cc2cc3ccccc3[nH]2)C(F)(F)F)CCCc2ccccc21 (stereo in doubt; 20D1)	nM	=	57.5
CCC1(CC(O)(Cc2cc(Cl)nc3ccccc23)C(F)(F)F)CCCc2ccccc21 (centres undefined)	nM	=	30.2
CC1(CC(O)(Cn2ccc(=O)c3ccccc32)C(F)(F)F)CCCc2ccccc21 (stereo in doubt; 17D2)	nM	>	1000
CCC1(CC(O)(Cc2cc3c(C)cc(C#N)cc3[nH]2)C(F)(F)F)CCCc2ccccc21 (stereo in doubt; 21D1E2)	nM	=	3.8
CCC1(CC(O)(Cc2cc3ccccc3[nH]2)C(F)(F)F)CCCc2ccccc21 (stereo in doubt; 20D1E1)	nM	=	11.2
CCC1(CC(O)(CNc2cccc3ncccc23)C(F)(F)F)CCCc2ccccc21 (centres undefined)	nM	=	12.3
CCC1(CC(O)(Cc2cc3ccncc3[nH]2)C(F)(F)F)CCCc2ccccc21 (stereo in doubt; 23D1E1)	nM	=	8.91
